Field: self-cleavage. Provide a value for each of the variants that follow.
B1: Twister Ribozyme (parent)
chain: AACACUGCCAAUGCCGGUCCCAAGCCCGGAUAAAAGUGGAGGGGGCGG

variants of: B1; experiment: self-cleavage, relative activity (ratio to wild type); higher = more cleavage; co-transcriptional
Answers are plain numbers.

INSERT INTO assay_data (variant_notation, measurement_label, endpoint_result) VALUES
  ('G16C A35C', 'self-cleavage', 0.394),
  ('G24A G28A', 'self-cleavage', 0.0708);

// each listed variant needs a value for self-cleavage
1. C15U G47C
2. C15A G47C
3. C14G G29U
4. C3A A23G
5. A10G U37C
6. G16C G17C
7. A1U C21A

Data returned:
0.415
0.253
0.192
0.0731
0.946
0.0907
0.0801

// each listed variant needs a value for self-cleavage
1. A10G G38A
2. A23U G29A

Data returned:
[0.89, 0.285]

// each listed variant needs a value for self-cleavage
1. G7U C21U
2. U6G U31C
3. C5G A23C

Data returned:
0.0705
0.365
0.0471
